# Tested on: MCF-7 breast cancer
# protocol_notes: MTT viability assay
# Type: cell-based, Human
# measurement_context: MCF-7, MTT, 72 h
measure: IC50

Problem: Recorded IC50 for "Cc1[nH+]cc(CO)c(C=NN=C(N)[S-])c1[O-].Cc1[nH+]cc(CO)c(C=NN=C(N)[S-])c1[O-].O.[Cl-].[Co+3]" , please?
Result: > 100 µM

Problem: Recorded IC50 for Cc1[nH+]cc(CO)c(C=NNC(N)=S)c1[O-].O.[Cl-].[Cl-].[Cl-].[Fe+3] [Fe-PLTSC, [Fe(PLTSC)Cl2(H2O)]Cl] , please?
Result: > 100 µM

Problem: Recorded IC50 for "Cc1[nH+]cc(CO)c(C=NNC(N)=S)c1[O-].Cc1[nH+]cc(CO)c(C=NNC(N)=S)c1[O-].O.O=[N+]([O-])[O-].O=[N+]([O-])[O-].[Ni+2]" , please?
Result: > 100 µM

----------
# Tested on: MCF-7 breast cancer
# protocol_notes: CV viability assay
# Assay type: cell-based, Human
# measurement_context: MCF-7, CV, 72 h
Measured IC50, listed per entry.

A selection of reference data follows.
Cc1[nH+]cc(CO)c(C=NNC(N)=S)c1[O-].O.[Cl-].[Cl-].[Cl-].[Fe+3] [Fe-PLTSC, [Fe(PLTSC)Cl2(H2O)]Cl] = > 100 µM
Cc1[nH+]cc(CO)c(C=NNC(N)=S)c1[O-].Cc1[nH+]cc(CO)c(C=NNC(N)=S)c1[O-].O.O=[N+]([O-])[O-].O=[N+]([O-])[O-].[Ni+2] [Ni-PLTSC, Ni-pyridoxal-thiosemicarbazone] = > 100 µM

Okay, next one:
Problem: Lookup: IC50 / MCF-7 breast cancer / Cc1[nH+]cc(CO)c(C=NN=C(N)[S-])c1[O-].Cc1[nH+]cc(CO)c(C=NN=C(N)[S-])c1[O-].O.[Cl-].[Co+3] [Co-PLTSC]
Result: > 100 µM

----------
# Test system: HCT116 colorectal carcinoma
# protocol_notes: CV viability assay
# Type: cell-based, Human
# measurement_context: 72 h
pIC50: −log10 of the molar value.
Measured pIC50, listed per entry.

Cc1[nH+]cc(CO)c(C=NNC(N)=S)c1[O-].Cc1[nH+]cc(CO)c(C=NNC(N)=S)c1[O-].O.O=[N+]([O-])[O-].O=[N+]([O-])[O-].[Ni+2] [Ni-PLTSC, Ni-pyridoxal-thiosemicarbazone] = < 4.00

Problem: Recorded pIC50 for Cc1[nH+]cc(CO)c(C=NN=C(N)[S-])c1[O-].Cc1[nH+]cc(CO)c(C=NN=C(N)[S-])c1[O-].O.[Cl-].[Co+3] [Co-PLTSC] , please?
Result: < 4.00

Problem: Recorded pIC50 for Cc1[nH+]cc(CO)c(C=NNC(N)=S)c1[O-].O.[Cl-].[Cl-].[Cl-].[Fe+3] [Fe-PLTSC, [Fe(PLTSC)Cl2(H2O)]Cl] , please?
Result: < 4.00

----------
Measured IC50, listed per entry.
# Test system: HCT116 colorectal carcinoma
# protocol_notes: MTT viability assay
# Type: cell-based, Human
# measurement_context: 72 h

Problem: Lookup: IC50 / HCT116 colorectal carcinoma / Cc1[nH+]cc(CO)c(C=NNC(N)=S)c1[O-].O.[Cl-].[Cl-].[Cl-].[Fe+3] [Fe-PLTSC, [Fe(PLTSC)Cl2(H2O)]Cl]
Result: > 100 µM

Problem: Lookup: IC50 / HCT116 colorectal carcinoma / Cc1[nH+]cc(CO)c(C=NN=C(N)[S-])c1[O-].Cc1[nH+]cc(CO)c(C=NN=C(N)[S-])c1[O-].O.[Cl-].[Co+3] [Co-PLTSC]
Result: > 100 µM

Problem: Lookup: IC50 / HCT116 colorectal carcinoma / Cc1[nH+]cc(CO)c(C=NNC(N)=S)c1[O-].Cc1[nH+]cc(CO)c(C=NNC(N)=S)c1[O-].O.O=[N+]([O-])[O-].O=[N+]([O-])[O-].[Ni+2] [Ni-PLTSC, Ni-pyridoxal-thiosemicarbazone]
Result: > 100 µM

Where do these numbers come from? They come from paper PMC10419307.
